// provenance: PubChem BioAssay AID602144

assayed-system: Phospholipase D1 (Homo sapiens)
procedure-details: cellular phospholipase D1 activity inhibition – Calu-1 cells, single concentration (AID 602144);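 note: tested at 200 nM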
assay-setup: cellular PLD1 activity
Activity calls are given as the source filed them. Cut-off read from the data, not from the text of the source: active = remaining activity below about 50%; inactive = the rest.
In this exercise, the only acceptable responses are active, inactive

These solved cases illustrate the format of a correct answer.
Q) Lab log entry: "O=C(NCCN1CCC2(CC1)C(=O)NCN2c1ccc(Cl)cc1)c1ccc(Cl)cc1" — outcome as called in the assay?
A) inactive

Q) Lab log entry: "O=C(NCCN1CCC2(CC1)C(=O)NCN2c1ccccc1)c1ccc2cc(F)ccc2c1" — outcome as called in the assay?
A) inactive

Q) Lab log entry: "O=C(COCc1ccccc1)NCCN1CCC2(CC1)C(=O)NCN2c1cccc(F)c1" — outcome as called in the assay?
A) inactive

Q) Lab log entry: "O=C(CCCl)NCCN1CCC2(CC1)C(=O)NCN2c1cccc(F)c1" — outcome as called in the assay?
A) inactive

Q) Lab log entry: "O=C(NCCN1CCC2(CC1)C(=O)NCN2c1cccc(F)c1)c1ccc(Cl)cc1Cl" — outcome as called in the assay?
A) inactive

In the following, a different compound is considered.
Q) Lab log entry: "CC1(C)C(C(=O)NCCN2CCC3(CC2)C(=O)NCN3c2ccccc2)C1(C)C" — outcome as called in the assay?
A) inactive

###

assayed-system: Phospholipase D1 (Homo sapiens)
procedure-details: cellular phospholipase D1 activity inhibition – Calu-1 cells, single concentration (AID 602144);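 note: tested at 200 nM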
assay-setup: cellular PLD1 activity, hits give low values
Please respond with condition met when measured remaining activity is strictly beneath 70%, and with condition not met in all other cases.

These solved cases illustrate the format of a correct answer.
Q) Is 70% strictly greater than the molecule's reported remaining activity? molecule: "O=C(NCCN1CCC2(CC1)C(=O)NCN2c1cccc(F)c1)c1c(F)cccc1F"
A) condition not met

Q) Is 70% strictly greater than the molecule's reported remaining activity? molecule: "O=C(NCCN1CCC2(CC1)C(=O)NCN2c1cccc(F)c1)C12CC3CC(CC(C3)C1)C2"
A) condition not met

Q) Is 70% strictly greater than the molecule's reported remaining activity? molecule: O=C(C1C[C@H]1c1ccccc1)N1CC(N2CCC(n3c(=O)[nH]c4ccccc43)CC2)C1 (some centres not stated)
A) condition not met

Q) Is 70% strictly greater than the molecule's reported remaining activity? molecule: "O=C(NCCN1CCC2(CC1)C(=O)NCN2c1ccccc1)c1cnco1"
A) condition not met

Q) Is 70% strictly greater than the molecule's reported remaining activity? molecule: "O=C(NCCN1CCC2(CC1)C(=O)NCN2c1ccc(Br)cc1)c1ccc(F)cc1"
A) condition not met

More entries:
Q) Is 70% strictly greater than the molecule's reported remaining activity? molecule: "C[C@@H](CN1CCC2(CC1)C(=O)NCN2c1ccc(F)c(F)c1)NC(=O)c1cc2cc(F)ccc2[nH]1"
A) condition met

Q) Is 70% strictly greater than the molecule's reported remaining activity? molecule: "O=C(NCCN1CCC2(CC1)C(=O)NCN2c1cccc(F)c1)c1ccc(-c2ccccc2)cc1"
A) condition not met

Q) Is 70% strictly greater than the molecule's reported remaining activity? molecule: "CC(C)[C@@H](CN1CCC2(CC1)C(=O)NCN2c1ccccc1)NC(=O)c1cnc2ccccc2c1"
A) condition met

Q) Is 70% strictly greater than the molecule's reported remaining activity? molecule: O=C(NCCN1CCC2(CC1)C(=O)NCN2c1ccccc1)C1C[C@H]1c1ccccc1 (some centres not stated)
A) condition not met

Q) Is 70% strictly greater than the molecule's reported remaining activity? molecule: "O=C(NCCN1CCC2(CC1)C(=O)NCN2c1ccc(Cl)cc1)c1ccc2ccccc2c1"
A) condition not met

###

Consider the following compounds and their measured remaining activity readings.
assayed-system: Phospholipase D1 (Homo sapiens) (UniProt Q13393)
Sequence (Q13393 whole entry, looked up): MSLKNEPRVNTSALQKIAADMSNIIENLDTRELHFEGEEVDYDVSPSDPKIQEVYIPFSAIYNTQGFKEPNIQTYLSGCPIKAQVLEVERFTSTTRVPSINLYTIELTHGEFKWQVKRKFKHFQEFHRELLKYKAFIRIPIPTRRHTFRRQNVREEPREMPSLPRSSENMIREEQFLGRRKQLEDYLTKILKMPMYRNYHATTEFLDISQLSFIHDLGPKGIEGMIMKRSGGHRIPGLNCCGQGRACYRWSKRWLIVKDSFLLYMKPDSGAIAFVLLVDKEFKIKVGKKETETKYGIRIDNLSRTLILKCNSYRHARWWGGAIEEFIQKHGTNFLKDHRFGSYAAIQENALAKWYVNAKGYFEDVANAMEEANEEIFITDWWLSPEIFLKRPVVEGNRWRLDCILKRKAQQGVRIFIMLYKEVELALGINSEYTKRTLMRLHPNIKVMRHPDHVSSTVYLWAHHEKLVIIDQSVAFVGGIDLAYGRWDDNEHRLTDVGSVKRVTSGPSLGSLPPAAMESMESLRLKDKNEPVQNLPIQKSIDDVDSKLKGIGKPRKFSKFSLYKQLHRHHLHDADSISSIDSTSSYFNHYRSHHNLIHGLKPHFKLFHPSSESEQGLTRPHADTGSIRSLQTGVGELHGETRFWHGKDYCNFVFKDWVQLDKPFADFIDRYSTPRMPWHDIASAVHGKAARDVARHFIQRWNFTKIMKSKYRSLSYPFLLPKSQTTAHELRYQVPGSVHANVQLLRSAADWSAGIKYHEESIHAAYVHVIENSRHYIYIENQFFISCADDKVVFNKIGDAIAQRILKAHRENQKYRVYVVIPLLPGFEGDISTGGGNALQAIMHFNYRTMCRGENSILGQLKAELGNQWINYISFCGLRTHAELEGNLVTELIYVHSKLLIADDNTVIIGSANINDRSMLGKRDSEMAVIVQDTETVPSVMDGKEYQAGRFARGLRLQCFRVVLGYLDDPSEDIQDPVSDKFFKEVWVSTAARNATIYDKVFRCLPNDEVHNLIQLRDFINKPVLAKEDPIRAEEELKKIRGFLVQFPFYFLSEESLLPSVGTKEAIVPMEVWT
Sequence (Q13393 whole entry, looked up): as above
procedure-details: cellular phospholipase D1 activity inhibition – Calu-1 cells, single concentration (AID 602144);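 note: tested at 200 nM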
assay-setup: cellular PLD1 activity, hits give low values
Only the number, expressed in %, is required.

Q) For the compound "CCC(=O)N[C@@H](C)CN1CCC2(CC1)C(=O)NCN2c1ccccc1" , report remaining activity.
A) 93.3

Q) For the compound "Cc1ccc(C(=O)NCCN2CCC3(CC2)C(=O)NCN3c2ccccc2)c(O)c1" , report remaining activity.
A) 89.1

Q) For the compound "O=C(NCCN1CCC2(CC1)C(=O)NCN2c1ccccc1)c1ncc(F)cc1F" , report remaining activity.
A) 125

Q) For the compound "O=C(NCCCCCCN1CCC2(CC1)C(=O)NCN2c1ccccc1)c1cnc2ccccc2c1" , report remaining activity.
A) 122

Q) For the compound "O=C(NCCN1CCC2(CC1)C(=O)NCN2c1ccccc1)C1(c2ccccc2)CCC1" , report remaining activity.
A) 94.9

Q) For the compound "Nc1ccc(C(=O)NCCN2CCC3(CC2)C(=O)NCN3c2ccccc2)cc1OC(F)(F)F" , report remaining activity.
A) 91.5

###

assayed-system: Phospholipase D1 (Homo sapiens) (UniProt Q13393)
procedure-details: cellular phospholipase D1 activity inhibition – Calu-1 cells, single concentration (AID 602144);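 note: tested at 200 nM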
assay-setup: cellular PLD1 activity, hits give low values
Active and inactive are the calls of the source. No stated cut-off is given here; in the data, active means remaining activity below about 50%; inactive means the rest.
measured-endpoint: remaining activity

Worked examples, 5 compounds total:
Q) For the compound "O=C(NCCN1CCC2(CC1)C(=O)NCN2c1ccccc1)c1cc(Br)c(Br)o1" , report remaining activity.
A) 66.9% (inactive)

Q) For the compound O=C(c1cnc2ccccc2c1)N1CCCC1CN1CCC(n2c(=O)[nH]c3ccccc32)CC1 (stereo not drawn) , report remaining activity.
A) 122% (inactive)

Q) For the compound "O=C(Cc1ccccc1Br)NCCN1CCC2(CC1)C(=O)NCN2c1cccc(F)c1" , report remaining activity.
A) 100% (inactive)

Q) For the compound "Cc1ccccc1C(=O)N(CCN1CCC2(CC1)C(=O)NCN2c1cccc(F)c1)C(=O)c1ccccc1C" , report remaining activity.
A) 105% (inactive)

Q) For the compound "O=C(NCCN1CCC2(CC1)C(=O)NCN2c1cccc(F)c1)c1cc2cc(F)ccc2[nH]1" , report remaining activity.
A) 44% (active)

More entries:
Q) For the compound "Cc1ccccc1C(=O)NCCN1CCC2(CC1)C(=O)NCN2c1cccc(F)c1" , report remaining activity.
A) 97.2% (inactive)

Q) For the compound "O=C(NCCN1CCC2(CC1)C(=O)NCN2c1ccccc1)c1ccc2c(c1)C(=O)OC2=O" , report remaining activity.
A) 103% (inactive)

Q) For the compound O=C(C1CC1c1ccccc1)N1CC(N2CCC3(CC2)C(=O)NCN3c2ccccc2)C1 (stereo not drawn) , report remaining activity.
A) 94.4% (inactive)

Q) For the compound "O=C(NCCN1CCC2(CC1)C(=O)NCN2c1ccc(F)cc1)c1ccc(F)cc1" , report remaining activity.
A) 78.2% (inactive)

Q) For the compound "O=C(NCCN1CCC2(CC1)C(=O)NCN2c1cccc(F)c1)c1cnc2ccccc2c1" , report remaining activity.
A) 79% (inactive)

Q) For the compound "O=C(NCCN1CCC2(CC1)C(=O)NCN2c1ccc(F)c(F)c1)c1cnc2ccccc2c1" , report remaining activity.
A) 91.3% (inactive)

Q) For the compound "CCCCCC(=O)NCCN1CCC2(CC1)C(=O)NCN2c1cccc(F)c1" , report remaining activity.
A) 109% (inactive)

Q) For the compound "COc1cc(C(=O)NCCN2CCC3(CC2)C(=O)NCN3c2ccccc2)ccc1N" , report remaining activity.
A) 103% (inactive)

###

assayed-system: Phospholipase D1 (Homo sapiens) (UniProt Q13393)
procedure-details: cellular phospholipase D1 activity inhibition – Calu-1 cells, single concentration (AID 602144);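 note: tested at 200 nM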
assay-setup: cellular PLD1 activity
Activity calls are given as the source filed them. Rule as the data show it: active = remaining activity below about 50%; inactive = the rest.
In this exercise, the only acceptable responses are class 1 (active), class 0 (inactive)

These solved cases illustrate the format of a correct answer.
Q) Lab log entry: "O=C(NCCN1CCC2(CC1)C(=O)NCN2c1ccccc1)c1cccc(F)n1" — outcome as called in the assay?
A) class 0

Q) Lab log entry: "O=C(NCCN1CCC2(CC1)C(=O)NCN2c1ccc(F)c(F)c1)c1ccc(Cl)cc1" — outcome as called in the assay?
A) class 0

In the following, a different molecule is considered.
Q) Lab log entry: "O=C1c2ccccc2C(=O)N1CCN1CCC2(CC1)C(=O)NCN2c1ccccc1" — outcome as called in the assay?
A) class 0

###

assayed-system: Phospholipase D1 (Homo sapiens) (UniProt Q13393)
procedure-details: cellular phospholipase D1 activity inhibition – Calu-1 cells, single concentration (AID 602144);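 note: tested at 200 nM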
assay-setup: cellular PLD1 activity, hits give low values
Please respond with class 1 when measured remaining activity is strictly beneath 90%, and with class 0 in all other cases.

Q) Is 90% strictly greater than the compound's reported remaining activity? compound: "Cc1cccc(C(=O)NCCN2CCC3(CC2)C(=O)NCN3c2ccccc2)n1"
A) class 0

Q) Is 90% strictly greater than the compound's reported remaining activity? compound: "O=C(NCCN1CCC2(CC1)C(=O)NCN2c1ccccc1)c1cnc2ccccc2n1"
A) class 0

Q) Is 90% strictly greater than the compound's reported remaining activity? compound: "CC(C)[C@@H](CN1CCC2(CC1)C(=O)NCN2c1ccccc1)NC(=O)c1ccc2ccccc2c1"
A) class 1

Q) Is 90% strictly greater than the compound's reported remaining activity? compound: "O=C(NCCN1CCC2(CC1)C(=O)NCN2c1ccccc1)c1ncccc1F"
A) class 0

Q) Is 90% strictly greater than the compound's reported remaining activity? compound: "O=C(N[C@@H](Cc1ccccc1)CN1CCC2(CC1)C(=O)NCN2c1ccccc1)c1ccc(F)c(F)c1"
A) class 1

Q) Is 90% strictly greater than the compound's reported remaining activity? compound: "O=C(NCCN1CCC2(CC1)C(=O)NCN2c1ccccc1)c1cc(=O)c2cc(Br)ccc2o1"
A) class 0

Q) Is 90% strictly greater than the compound's reported remaining activity? compound: "O=C(C#Cc1ccccc1)NCCN1CCC2(CC1)C(=O)NCN2c1ccccc1"
A) class 1

Q) Is 90% strictly greater than the compound's reported remaining activity? compound: "O=C(NCCN1CCC2(CC1)C(=O)NCN2c1ccc(F)c(F)c1)c1ccc(F)cc1"
A) class 0

More entries:
Q) Is 90% strictly greater than the compound's reported remaining activity? compound: "CC(C)[C@@H](CN1CCC2(CC1)C(=O)NCN2c1ccccc1)NC(=O)c1ccc(F)cc1"
A) class 1
